System: A549-dual_ACE2_TMPRSS2 cells
Property label: CC50

Kindly note: A549-dual_ACE2_TMPRSS2 cells, CC(C)(C)[C@H](NC(=O)c1cnccn1)C(=O)N1C[C@H]2[C@@H]([C@H]1C(=O)N[C@H](C#N)C[C@@H]1CCNC1=O)[C@H]1C=C[C@@H]2C1 [Example 6] , CC50 value reported: > 10 µM

----------
Molecular target: SARS-Cov-2 3CLpro (Severe acute respiratory syndrome coronavirus 2, UniProt P0DTD1)
Construct: 3CLpro and HRV3C was added using a Multidrop Combi
Experiment: biochemical
Conditions: 3CLpro, 30 mins preincubation, SAMDI-MS; read-out: SARS-Cov-2 IC50 (class)
pIC50: −log10 of the molar value.
Property label: pIC50

Before answering, review these 9 worked examples.
COC(C)(C)[C@H](NC(=O)C(F)(F)C(F)(F)F)C(=O)N1C[C@H]2[C@@H]([C@H]1C(=O)N[C@H](C#N)C[C@@H]1CCNC1=O)[C@H]1C=C[C@@H]2C1 [Compound 131]    > 7.70
C#CC(C)(C)[C@H](NC(=O)C1(F)CC1)C(=O)N1C[C@H]2[C@@H]([C@H]1C(=O)N[C@H](C#N)C[C@@H]1CCNC1=O)[C@H]1C=C[C@@H]2C1 [Compound 63]    > 7.70
COC1(C(=O)N[C@H](C(=O)N2C[C@H]3[C@@H]([C@H]2C(=O)N[C@H](C#N)C[C@@H]2CCNC2=O)[C@H]2C=C[C@@H]3C2)C(C)(C)C)CCC1 [Compound 127]    6.70 to 7.70
N#C[C@H](C[C@@H]1CCNC1=O)NC(=O)[C@@H]1[C@@H]2[C@H](CN1C(=O)[C@@H](NC(=O)C(F)(F)F)C13CC(C1)C3)[C@@H]1C=C[C@H]2C1 [Example 27]    > 7.70
CC(C)(C)[C@H](NC(=O)C(F)(F)Cl)C(=O)N1C[C@@H]2[C@H]3C[C@@H]([C@@H]2[C@H]1C(=O)N[C@H](C#N)C[C@@H]1CCNC1=O)[C@H](F)C3 [Compound 134]    > 7.70
CC(C)(C)[C@H](NC(=O)c1ccccn1)C(=O)N1C[C@H]2[C@@H]([C@H]1C(=O)N[C@H](C#N)C[C@@H]1CCNC1=O)[C@H]1C=C[C@@H]2C1 [Example 5]    5.70 to 6.70
COC1(C(=O)N[C@H](C(=O)N2C[C@H]3[C@@H]([C@H]2C(=O)N[C@H](C#N)C[C@@H]2CCNC2=O)[C@H]2C=C[C@@H]3C2)C(C)(C)C)CC1 [Compound 126]    6.70 to 7.70
CC(F)(F)[C@H](NC(=O)C(F)(F)F)C(=O)N1C[C@H]2[C@@H]([C@H]1C(=O)N[C@H](C#N)C[C@@H]1CCNC1=O)[C@H]1C=C[C@@H]2C1 [Compound 133]    > 7.70
CC(C)(C)[C@H](NC(=O)C(F)(F)F)C(=O)N1C[C@H]2[C@@H]([C@H]1C(=O)N[C@H](C#N)C[C@@H]1CCNC1=O)[C@H]1C=C[C@@H]2CC1 [Compound 59b]    > 7.70

Consider the additional compound presented here.
compound CC(C)(C)[C@H](NC(=O)C(F)(Cl)Cl)C(=O)N1C[C@@H]2[C@@H]3CC[C@@H](C3)[C@@H]2[C@H]1C(=O)N[C@H](C#N)C[C@@H]1CCNC1=O [Compound 67] , pIC50 observed: > 7.70
